# target: STING AQ (His-TVMV-S-hSTING(155-341)-G230A-R293Q) (Homo sapiens, UniProt Q86WV6, G230A/H232R/R293Q)
# Construct: STING AQ: His-TVMV-S-hSTING(155-341)-G230A-R293Q
# Sequence (Q86WV6 with tags, fused parts or gaps G230A/H232R/R293Q): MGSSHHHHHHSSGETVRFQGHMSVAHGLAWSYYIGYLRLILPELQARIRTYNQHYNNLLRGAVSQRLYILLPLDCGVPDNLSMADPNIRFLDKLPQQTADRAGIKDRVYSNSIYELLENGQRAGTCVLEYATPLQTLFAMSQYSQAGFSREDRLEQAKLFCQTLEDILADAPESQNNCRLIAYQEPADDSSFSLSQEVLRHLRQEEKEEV
# test_method_notes: STING HTRF binding assay (time resolved FRET competition), STING AQ
# study_conditions: 20 nM His-tagged STING AQ cytoplasmic domain, 40 nM fluorescein-labeled cGAMP analog probe, one hour; read-out: HTRF Binding Assays IC50 AQ
pIC50: −log10 of the molar value.
Please use Satisfied whenever pIC50 is not below 8, and Not satisfied whenever it is.

Below, 6 molecules whose answers are already recorded.
NC(=O)c1cccc2c1nnn2[C@@H]1O[C@@H]2COP(=O)(S)O[C@H]3[C@@H](F)[C@H](n4cnc5c(N)ncnc54)O[C@@H]3COP(=O)(S)O[C@@H]1[C@@H]2F (single isomer, unassigned) [Example 10-4]    Satisfied
NC(=O)c1cccc2c1nnn2[C@@H]1O[C@@H]2COP(=O)(O)O[C@H]3[C@@H](F)[C@H](n4cnc5c(N)ncnc54)O[C@@H]3COP(=O)(S)O[C@@H]1[C@@H]2F (single isomer, unassigned) [Example 6-2]    Satisfied
NC(=O)c1cccc2c1nnn2[C@@H]1O[C@@H]2COP(=O)(S)O[C@H]3[C@@H](F)[C@H](n4cnc5c(N)ncnc54)O[C@@H]3COP(=O)(S)O[C@@H]1[C@@H]2F (single isomer, unassigned) [Example 10-1]    Satisfied
NC(=O)c1cccc2c1nnn2[C@@H]1O[C@@H]2COP(=O)(O)O[C@H]3[C@@H](F)[C@H](n4cnc5c(N)ncnc54)O[C@@H]3COP(=O)(S)O[C@@H]1[C@@H]2O (single isomer, unassigned) [Example 4-2]    Satisfied
Nc1ncnc2c1ncn2[C@@H]1O[C@@H]2COP(=O)(O)O[C@@H]3[C@H](O)[C@@H](COP(=O)(O)O[C@H]2[C@H]1O)O[C@H]3n1nnc2c([N+](=O)[O-])cccc21    Satisfied
Nc1ncnc2c1ncn2[C@@H]1O[C@@H]2COP(=O)(O)O[C@@H]3[C@H](O)[C@@H](COP(=O)(S)O[C@H]2[C@H]1F)O[C@H]3n1nnc2c([N+](=O)[O-])cccc21 (some centres unmarked)    Not satisfied

We next turn to a different molecule, shown below.
**Q:** Hi, just wondering whether NC(=O)c1cccc2c1nnn2[C@@H]1O[C@@H]2COP(=O)(S)O[C@H]3[C@@H](F)[C@H](n4cnc5c(N)ncnc54)O[C@@H]3COP(=O)(S)O[C@@H]1[C@@H]2O (single isomer, unassigned) [Example 8-3] shows pIC50 of 8 or higher.
**A:** Not satisfied

====

# System: STING / NF-κB pathway in THP1-Dual cells
# test_method_notes: STING THP1 Reporter Assay, NF-κB pathway (SEAP, QUANTI-Blue)
# Type: cell-based
# study_conditions: 10% human plasma, 20 hours, 100% activation = 100 μM cGAMP, SEAP readout, read-out: THP1 Reporter Assays EC50 NFkB
// reported pEC50 per item
Hey, just a heads up that pEC50 is the negative log base 10 of the concentration in molar.

**Q:** Which value of pEC50 has been reported for NC(=O)c1cccc2c1nnn2[C@@H]1O[C@@H]2COP(=O)(S)O[C@H]3[C@@H](F)[C@H](n4cnc5c(N)ncnc54)O[C@@H]3COP(=O)(S)O[C@@H]1[C@@H]2F (single isomer, unassigned) [Example 10-3] in the records?
**A:** 5.05

**Q:** Which value of pEC50 has been reported for NC(=O)c1cccc2c1nnn2[C@@H]1O[C@@H]2COP(=O)(O)O[C@H]3[C@@H](F)[C@H](n4cnc5c(N)ncnc54)O[C@@H]3COP(=O)(S)O[C@@H]1[C@@H]2F (single isomer, unassigned) [Example 6-1] in the records?
**A:** 5.39

Value source: patent US10947263B2
